Biological target: UniProt:O60885
Assay: TR-FRET bromodomain binding assay, BRD4 second bromodomain
Conditions: His-tagged BD2, Alexa647-labeled probe 30 nM
Collected Ki values appear next to each entry.
Numbers only; they are read as nM.

Solved entries:
{"Compound": "CCS(=O)(=O)Nc1cc(-c2cn(C)c(=O)c3[nH]ccc23)c(Oc2ccc(F)cc2F)cc1CN1CCCC1c1ccccc1 (centres unmarked)", "Test Target": "UniProt:O60885", "Ki, nM": 14}
{"Compound": "Cn1cc(-c2cc(S(C)(=O)=O)ccc2Oc2cccc(NS(=O)(=O)c3ccc(S(C)(=O)=O)cc3)c2)c2cc[nH]c2c1=O", "Test Target": "UniProt:O60885", "Ki, nM": 1.1}
{"Compound": "Cn1cc(-c2cc(S(C)(=O)=O)ccc2NC2CCN(S(=O)(=O)c3cccc(C#N)c3)CC2)c2cc[nH]c2c1=O", "Test Target": "UniProt:O60885", "Ki, nM": 17}
{"Compound": "Cn1cc(-c2cc(S(C)(=O)=O)ccc2NC2CCN(S(=O)(=O)Cc3ccccc3)CC2)c2cc[nH]c2c1=O", "Test Target": "UniProt:O60885", "Ki, nM": 5.8}
{"Compound": "CN1CCN(Cc2cc3c(-c4cc(S(C)(=O)=O)ccc4Oc4ccc(F)cc4F)cn(C)c(=O)c3[nH]2)C(c2ccccc2)C1 (centres unmarked)", "Test Target": "UniProt:O60885", "Ki, nM": 151}

Q: Reported Ki for CC(=O)Nc1ccc(CNc2cccc(Oc3ccc(S(C)(=O)=O)cc3-c3cn(C)c(=O)c4[nH]ccc34)c2)cc1 : what is it?
Result: 0.6

Q: Reported Ki for Cn1cc(-c2cc(S(C)(=O)=O)ccc2NC2CCN(C(=O)CCN3CCOCC3)CC2)c2cc[nH]c2c1=O : what is it?
Result: 28

Q: Reported Ki for Cn1cc(-c2cc(S(C)(=O)=O)ccc2Oc2cccc(NCc3ccccc3F)c2)c2cc[nH]c2c1=O : what is it?
Result: 2.8

----------
Target: BRD4 (BDII_E352-M457) (Homo sapiens (Human), UniProt O60885)
Experiment: TR-FRET bromodomain binding assay, BRD4 second bromodomain
Conditions: His-tagged BD2, Alexa647-labeled probe 30 nM
pKi: −log10 of the molar value.
Label Fulfilled for high-side pKi (at or above 8) and Not fulfilled for low-side pKi (below it).

Here are 2 compounds together with their reported answers.
{"Compound": "CCS(=O)(=O)c1ccc(Oc2c(C)cccc2Cl)c(-c2cn(C)c(=O)c3[nH]c(C(=O)NCCC#N)cc23)c1", "Discrete Label": "Fulfilled"}
{"Compound": "CCS(=O)(=O)c1ccc(OCC2CC2(F)F)c(-c2cn(C)c(=O)c3[nH]c(C#CCN(C)C)cc23)c1 (stereo not drawn)", "Discrete Label": "Fulfilled"}

Q: # check: pKi of Cn1cc(-c2cc(S(C)(=O)=O)ccc2Oc2cccc(NCc3ccc(F)cc3Cl)c2)c2cc[nH]c2c1=O is greater than or equal to 8
Result: Fulfilled

Q: # check: pKi of Cn1cc(-c2cc(S(C)(=O)=O)ccc2Oc2cccc(NCc3cccc(C#N)c3)c2)c2cc[nH]c2c1=O is greater than or equal to 8
Result: Fulfilled

Q: # check: pKi of CCS(=O)(=O)Nc1cc(-c2cn(C)c(=O)c3[nH]ccc23)c(Oc2ccc(F)cc2F)cc1C(=O)O is greater than or equal to 8
Result: Fulfilled

Q: # check: pKi of Cn1cc(-c2cc(S(C)(=O)=O)ccc2Oc2cccc(NCc3ccc4c(c3)OCCO4)c2)c2cc[nH]c2c1=O is greater than or equal to 8
Result: Fulfilled

Q: # check: pKi of Cn1cc(-c2cc(S(C)(=O)=O)ccc2Oc2cccc(NS(=O)(=O)c3ccc(C#N)cc3)c2)c2cc[nH]c2c1=O is greater than or equal to 8
Result: Fulfilled

Q: # check: pKi of CN(C)c1cccc2c(S(=O)(=O)Nc3cccc(Oc4ccc(S(C)(=O)=O)cc4-c4cn(C)c(=O)c5[nH]ccc45)c3)cccc12 is greater than or equal to 8
Result: Fulfilled

Q: # check: pKi of CCS(=O)(=O)c1ccc(Oc2ccc(F)cc2F)c(-c2cn(C)c(=O)c3[nH]c(-c4ccnn4-c4ccccc4)cc23)c1 is greater than or equal to 8
Result: Fulfilled

Q: # check: pKi of Cn1cc(-c2cc(S(C)(=O)=O)ccc2Oc2cccc(NCc3cccc(OC(F)(F)F)c3)c2)c2cc[nH]c2c1=O is greater than or equal to 8
Result: Fulfilled

The values you see were collected from patent US9957263B2.
